Test system: Doxorubicin-induced premature senescent HDF164
Experiment: Alamar blue viability assay, doxorubicin-induced SIPS vs quiescent HDF164 (FIG. 7, 14)
Format: cell-based, human
Conditions: increasing MK886 combined with 0.4 mM ASA; read-out: EC50 for senescent cells
metric: pEC50
Interpret pEC50 as the negative base-10 log of the concentration measured in mol/L.

Using the record for CC(C)c1ccc2c(c1)c(SC(C)(C)C)c(CC(C)(C)C(=O)O)n2Cc1ccc(Cl)cc1 , report its pEC50.
4.52

====

System: Doxorubicin-induced premature senescent HDF164
Test: Alamar blue viability assay, doxorubicin-induced SIPS vs quiescent HDF164 (FIG. 7, 14)
Assay type: cell-based, human
Conditions: increasing MK886 combined with 50 μM Diclofenac; read-out: EC50 for senescent cells
metric: pEC50
Interpret pEC50 as the negative base-10 log of the concentration measured in mol/L.

Fill in the recorded pEC50 for this molecule, with Doxorubicin-induced premature senescent HDF164 as test system: CC(C)c1ccc2c(c1)c(SC(C)(C)C)c(CC(C)(C)C(=O)O)n2Cc1ccc(Cl)cc1
4.76
